I'd be grateful if you could share measured efficacy in % for these entries.
Tested on: Gibberella zeae
recordedConditions: in vivo
Supply the numeric figure in %, leaving out any unit text.

# input Name the reported efficacy in % value associated with the molecule CC(C)CC(=O)Nc1cc(-c2c(-c3ccccc3)nn3c2CCCC3)ccn1 [Example 31]
# output 80

# input Same for CC(C)C(=O)Nc1cc(-c2c(-c3ccc(F)cc3)nn3c2CCCC3)ccn1 [Example 28]
# output 85

# input Same for O=C(Cc1ccccc1)Nc1cc(-c2c(-c3ccc(F)cc3)nn3c2CCCC3)ccn1 [Example 34]
# output 80

# input Same for CC(C)C(=O)Nc1cc(-c2c(-c3ccccc3)nn3c2CCCC3)ccn1 [Example 29]
# output 80

* * *

Tested on: Alternaria solani
assayProcedure: Alternaria test (tomato)/protective
Format: in vivo
recordedConditions: in vivo
observationType: efficacy in % (%)
Supply the numeric figure in %, leaving out any unit text.

# input Name the reported efficacy in % value associated with the compound CCC(=O)Nc1cc(-c2c(-c3ccccc3)nn3c2COCC3)ccn1
# output 80

# input Same for Fc1cccc(-c2nn3c(c2-c2ccncc2)CCC3)c1
# output 80

# input Same for CCC(=O)Nc1cc(-c2c(-c3ccsc3)nn3c2CCCC3)ccn1
# output 70

# input Same for Cc1cc(-c2c(-c3ccc(F)cc3)nn3c2CCCC3)ccn1
# output 95

# input Same for O=C(Nc1cc(-c2c(-c3ccccc3)nn3c2CCCC3)ccn1)c1ccsc1
# output 95

# input Same for CC(C)C(=O)Nc1cc(-c2c(-c3ccc(F)cc3)nn3c2CCOC3(C)C)ccn1
# output 89

# input Same for O=C(Cc1ccccc1)Nc1cc(-c2c(-c3ccccc3)nn3c2CCCC3)ccn1
# output 94

# input Same for CC(C)CC(=O)Nc1cc(-c2c(-c3ccsc3)nn3c2CCCC3)ccn1
# output 100

# input Same for Cc1ccc(-c2nn3c(c2-c2ccncc2)CCC3)cc1
# output 70

* * *

Tested on: Pyrenophora teres
assayProcedure: Pyrenophora teres test (barley)/protective
Format: in vivo
recordedConditions: in vivo
observationType: efficacy in % (%)
Supply the numeric figure in %, leaving out any unit text.

# input Name the reported efficacy in % value associated with the compound c1csc(-c2nn3c(c2-c2ccncc2)CCCC3)c1
# output 95

# input Same for COCC(=O)Nc1cc(-c2c(-c3ccsc3)nn3c2CCCC3)ccn1
# output 90

# input Same for O=C(Nc1cc(-c2c(-c3ccc(F)cc3)nn3c2CCOC3)ccn1)C1CCC1
# output 95

# input Same for CC(C)CNc1cc(-c2c(-c3ccccc3)nn3c2CCC3)ccn1
# output 80

# input Same for Clc1ccc(-c2nn3c(c2-c2ccncc2)CCC3)cc1
# output 70

* * *

System: Pyrenophora teres
assayProcedure: Pyrenophora teres test (barley)/protective
Format: in vivo
recordedConditions: in vivo
observationType: efficacy in % (%)
Supply the numeric figure in %, leaving out any unit text.

# input Name the reported efficacy in % value associated with the compound CC(C)CNc1cc(-c2c(-c3cccc(F)c3)nn3c2CCC3)ccn1 [Example 73]
# output 70

# input Same for Fc1cc(-c2c(-c3ccc(Cl)cc3)nn3c2CCC3)ccn1 [Example 13]
# output 80

# input Same for CCC(=O)Nc1cc(-c2c(-c3ccsc3)nn3c2CCCC3)ccn1 [Example 59]
# output 90

# input Same for CC(C)CC(=O)Nc1cc(-c2c(-c3ccc(F)cc3)nn3c2CCCC3)ccn1 [Example 30]
# output 100

# input Same for c1ccc(-c2nn3c(c2-c2ccncc2)CCC3)cc1 [Example 10]
# output 80

Sourced from patent US8507472B2
